- Test name: qHTS RealTime-Glo MT Cell Viability Assay in HEK293 cells - 16 hour (AID 1224872); further: nearly all actives have a fitted effect of over 50% in size
- Measurement parameters: RealTime-Glo luminescence; series mostly up to 76.8 µM
Inconclusive results are not listed. Calls of active or inactive are those of the source. The call rests on the fitted dose curve; in most records, active means well fitted cell-killing curve with a large enough effect in the repeat runs; inconclusive means weak or mixed curves, or effect the other way; inactive means flat fitted curve, though single readings scatter.
Bench note: report the call from active, inactive

Example entries and their recorded answers appear below.
{"Compound": "CO/N=C(/C1=NOCCO1)c1ccccc1Oc1ncnc(Oc2ccccc2Cl)c1F", "Class label": "inactive"}
{"Compound": "CCCCON=O", "Class label": "inactive"}
{"Compound": "CCN(CC)Cc1nccn1-c1ccc([N+](=O)[O-])cc1C(=O)c1ccccc1Cl", "Class label": "inactive"}
{"Compound": "O=C(Cl)c1ccccc1F", "Class label": "inactive"}
{"Compound": "Cc1cc(C2CC2)nc(Nc2ccccc2)n1", "Class label": "active"}
{"Compound": "CN(C)CCc1c[nH]c2ccccc12", "Class label": "inactive"}
{"Compound": "Nc1ccc(Cl)cc1C(=O)c1ccccc1F", "Class label": "inactive"}
{"Compound": "C=CC(=C)C", "Class label": "inactive"}
{"Compound": "[Cl-].[Cl-].[Cl-].[Yb+3]", "Class label": "inactive"}
{"Compound": "CC(Cl)CCl (stereo not given)", "Class label": "inactive"}

What outcome does the record of this test show for CC1CCCC1 ?
inactive

In this assay, the call recorded for c1ccc2nc(N3CCNCC3)ccc2c1 was what?
inactive

Please let me know the test result on file for O=[N+]([O-])c1ccc(CCl)cc1 .
inactive

Hi team, can someone confirm the assay call for CCc1cccc(C)c1N(C(=O)CCl)[C@@H](C)COC ?
inactive

Name the outcome recorded for Cc1ccc(C)c2ccccc12 in the assay.
inactive

----------
- System tested: Aromatase (Homo sapiens) (UniProt P11511)
- Sequence (P11511 whole entry, looked up): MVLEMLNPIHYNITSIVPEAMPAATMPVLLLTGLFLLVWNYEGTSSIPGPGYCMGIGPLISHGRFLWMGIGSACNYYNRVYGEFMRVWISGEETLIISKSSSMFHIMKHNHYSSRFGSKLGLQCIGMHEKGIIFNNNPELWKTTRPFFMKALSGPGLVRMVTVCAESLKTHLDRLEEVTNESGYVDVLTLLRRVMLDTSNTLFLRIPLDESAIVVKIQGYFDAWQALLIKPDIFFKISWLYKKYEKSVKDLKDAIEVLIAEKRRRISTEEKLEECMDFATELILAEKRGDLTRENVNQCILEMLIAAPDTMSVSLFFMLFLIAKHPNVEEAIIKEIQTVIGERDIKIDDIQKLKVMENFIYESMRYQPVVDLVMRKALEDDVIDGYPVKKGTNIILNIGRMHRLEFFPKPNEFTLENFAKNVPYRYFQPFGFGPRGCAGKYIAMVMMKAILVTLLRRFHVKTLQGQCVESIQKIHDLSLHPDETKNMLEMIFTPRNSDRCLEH
- Test name: qHTS assay to identify aromatase inhibitors (AID 743083); further: nearly all actives have a fitted effect of over 55% in size
- Measurement parameters: MCF-7 aro ERE, testosterone-driven ERE luciferase, 24 h; series mostly up to 70.3 µM
Results filed as inconclusive are left out. The source made the active and inactive calls. The call rests on the fitted dose curve; in most records, active means well fitted inhibition curve with a large enough effect in the repeat runs; inconclusive means weak or mixed curves; inactive means no such curve, though single readings can be large or run the other way.
Tick one outcome: active, inactive

Consider the worked cases shown below.
{"Molecule": "Cc1cnc2c(C(=O)O)c(Cl)ccc2c1", "System tested": "Aromatase (Homo sapiens) (UniProt P11511)", "Class label": "inactive"}
{"Molecule": "O=S1OCC2C(CO1)C1(Cl)C(Cl)=C(Cl)C2(Cl)C1(Cl)Cl (stereo not drawn)", "System tested": "Aromatase (Homo sapiens) (UniProt P11511)", "Class label": "active"}
{"Molecule": "Cc1c([N+](=O)[O-])cc2c(c1[N+](=O)[O-])C(C)(C)CC2(C)C", "System tested": "Aromatase (Homo sapiens) (UniProt P11511)", "Class label": "active"}
{"Molecule": "Oc1cccc(Cl)c1Cl", "System tested": "Aromatase (Homo sapiens) (UniProt P11511)", "Class label": "inactive"}
{"Molecule": "ClC1=C(Cl)[C@]2(Cl)[C@H]3[C@H]([C@@H]4C=C[C@H]3C4)[C@@]1(Cl)C2(Cl)Cl", "System tested": "Aromatase (Homo sapiens) (UniProt P11511)", "Class label": "inactive"}

Now for another entry.
Per the records of this test, what outcome belongs to N#CCCl ?
inactive

----------
- Test name: qHTS assay to identify small molecule agonists of the endoplasmic reticulum stress response signaling pathway - cell viability counter screen (AID 1159517); further: nearly all actives have a fitted effect of over 50% in size
- Measurement parameters: ESRE-bla HeLa viability, CellTiter-Glo luminescence, 5 h; series mostly up to 61 µM
Results filed as inconclusive are left out. Active and inactive are the calls of the source. The call rests on the fitted dose curve.
Hi! Could you answer with just one of these? T = active, F = inactive

Solved entries (count: 4):
{"Compound": "CCCC[N+]1(C)CCCC1 (tested in a mixture with another compound)", "Class label": "F"}
{"Compound": "O=C(O)CCCCCCNC1c2ccccc2CCc2ccccc21", "Class label": "F"}
{"Compound": "COP(=O)(OC)Oc1ccc([N+](=O)[O-])cc1", "Class label": "F"}
{"Compound": "CNN", "Class label": "F"}

Record request — test call for C=CCBr
F

What was the test verdict on NC1CCC(CC2CCC(N)CC2)CC1 (stereo not drawn) ?
F

So what was the verdict on O=C1C2(Cl)C3(Cl)C4(Cl)C(Cl)(Cl)C5(Cl)C3(Cl)C1(Cl)C5(Cl)C24Cl (stereo not drawn) in this test?
T

Per the records of this test, what outcome belongs to COC(=O)N(OC)c1ccccc1COc1ccn(-c2ccc(Cl)cc2)n1 ?
F

----------
- Test name: qHTS assay to identify small molecule antagonists of the sonic hedgehog signaling (Shh) pathway - cell viability counter screen (AID 1259367); further: nearly all actives have a fitted effect of over 55% in size
- Measurement parameters: NIH/3T3 Gli1-Luc viability, CellTiter-Fluor, 24 h; series mostly up to 92.4 µM
Records with an inconclusive call do not appear. Activity calls are given as the source filed them. Calls come from the whole dose curve; as a rule, active = well fitted cell-killing curve with a large enough effect in the repeat runs; inconclusive = weak or mixed curves, or effect the other way; inactive = no such curve, though single readings can be large or run the other way.
API: response.call in active, inactive

Which outcome did this test record for the compound O=[N+]([O-])c1cccc2cccc([N+](=O)[O-])c12 ?
inactive

Tell me the recorded outcome of this test for CC(C)C(Nc1ccc(C(F)(F)F)cc1Cl)C(=O)OC(C#N)c1cccc(Oc2ccccc2)c1 (configuration not stated) .
inactive

Please let me know the test result on file for CCO/N=C(\CC)C1=C(O)CC(c2c(C)cc(C)cc2C)CC1=O (configuration not stated) .
inactive

What call does the record list for O=c1c2ccccc2c(=O)c2c1cc(Cl)c1[nH]c3c([nH]c12)c(Cl)cc1c(=O)c2ccccc2c(=O)c13 ?
inactive

Identify the outcome logged in this assay for the compound shown: O=S1OCC2C(CO1)C1(Cl)C(Cl)=C(Cl)C2(Cl)C1(Cl)Cl (configuration not stated)
active

Could you check what this test reported for O.O.O.O=C([O-])[C@H]([O-])[C@@H]([O-])C(=O)[O-].O=C([O-])[C@H]([O-])[C@@H]([O-])C(=O)[O-].[K+].[K+].[Sb+3].[Sb+3] ?
inactive

Recorded test outcome, item N#CC(C#N)=NNc1cccc(Cl)c1
active

Per the assay record, what outcome was assigned to C=C(C)C(=O)[O][Sn]([CH2]CCC)([CH2]CCC)[CH2]CCC ?
active

Could you kindly confirm the outcome this assay logged for [O]=[Cr][O][Cr]=[O] ?
inactive

For COc1c2c(cc3c1OCO3)CCN(C)C2 , which call appears in the assay record?
inactive

Tell me the assay call for Cc1ccc2cc3c(ccc4ccccc43)c3c2c1CC3 please.
inactive

Assay outcome for CCCCN(CCCC)C(=S)[S-].CCCCN(CCCC)C(=S)[S-].[Ni+2] : what was it?
inactive

Short answer needed: outcome of this test for NC(=O)C(Cl)Cl ?
inactive

----------
- Test name: A CellTox Green Cytotoxicity Assay to monitor cytotoxicity in HEK293 cells - 32 hour (AID 1224881); further: nearly all actives have a fitted effect of over 40% in size
- Measurement parameters: CellTox Green fluorescence; series mostly up to 76.8 µM
Results filed as inconclusive are left out. Activity calls are given as the source filed them. The call rests on the fitted dose curve; in most records, active means well fitted activation curve with a large enough effect in the repeat runs; inconclusive means weak or mixed curves; inactive means flat fitted curve, though single readings scatter.
Select the correct class. Options are Y = active, N = inactive and nothing else.

{"Molecule": "CCOP(=S)(NC(C)C)Oc1ccccc1C(=O)OC(C)C (configuration not stated)", "Class label": "N"}
{"Molecule": "CCn1cc[n+](C)c1 (tested in a mixture with another compound)", "Class label": "N"}
{"Molecule": "Clc1ccc(C2(Cn3cncn3)OCCO2)c(Cl)c1", "Class label": "N"}
{"Molecule": "CCCCN(CCCC)C(=S)[S-].CCCCN(CCCC)C(=S)[S-].[Ni+2]", "Class label": "N"}
{"Molecule": "Fc1ccc(C(OCCN2CCN(CCCc3ccccc3)CC2)c2ccc(F)cc2)cc1", "Class label": "Y"}
{"Molecule": "Cc1ccc(C)c2ccccc12", "Class label": "Y"}

Now examine the next entry.
In this assay, the call recorded for CSSC was what?
N

----------
- Test name: A CellTox Green Cytotoxicity Assay to monitor cytotoxicity in HEK293 cells - 16 hour (AID 1224888); further: nearly all actives have a fitted effect of over 35% in size
- Measurement parameters: CellTox Green fluorescence; series mostly up to 76.8 µM
Results filed as inconclusive are left out. Activity calls are given as the source filed them. Calls follow the shape of the dose curve; as a rule, active = well fitted activation curve with a large enough effect in the repeat runs; inconclusive = weak or mixed curves; inactive = flat fitted curve, though single readings scatter.
Your response should consist of one outcome taken from Yes = active, No = inactive

{"Molecule": "Cc1ccccc1OP(=O)(Oc1ccccc1C)Oc1ccccc1C", "Class label": "No"}
{"Molecule": "S=C=NCCc1ccccc1", "Class label": "No"}
{"Molecule": "N#Cc1ccc(N(CC(N)=O)CC(F)(F)F)cc1C(F)(F)F", "Class label": "No"}

What was the test verdict on CCN(CC)CCN1C(=O)CN=C(c2ccccc2F)c2cc(Cl)ccc21 ?
No

Fill in: this test's call for O=S1(=O)OCC2C(CO1)C1(Cl)C(Cl)=C(Cl)C2(Cl)C1(Cl)Cl (stereo not given) is ___
No

Status in this test for CC(C)N(C(=O)CCl)c1ccccc1 ?
No

So what was the verdict on [Cl-].[Cl-].[Sn+2] in this test?
No

Lab log entry: ClC1(Cl)C2(Cl)C3(Cl)C4(Cl)C(Cl)(Cl)C5(Cl)C3(Cl)C1(Cl)C5(Cl)C24Cl (stereo not given) — outcome as called in the assay?
No

Assay result, entry CNC(C)(C)Cc1ccccc1 — outcome?
No

Recorded test call requested for O.O.O.O=C([O-])[C@H]([O-])[C@@H]([O-])C(=O)[O-].O=C([O-])[C@H]([O-])[C@@H]([O-])C(=O)[O-].[K+].[K+].[Sb+3].[Sb+3]
No

Which outcome did this test record for the molecule CC(=O)C(Cl)C(=O)N(C)C (stereo not given) ?
No

Could you kindly confirm the outcome this assay logged for CC(O)C(=O)[O][Hg][c]1ccccc1 (stereo not given) ?
Yes

Just curious, what result did CC(=O)[O][Pb]([c]1ccccc1)([c]1ccccc1)[c]1ccccc1 get here?
Yes
